Data origin, for the record: the supplement of paper PMC12042874

assayNotes: amyloid nucleation score (Sup35N fusion, yeast selection) (log enrichment); library NNK1; higher = more nucleation; inactive = no reads after selection;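 note: zero at mode of non-aggregating sequences after 7 days selection at 30°C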
testReadout: amyloid nucleation score

{"columns": ["substance", "amyloid nucleation score"],
 "data": [
  ["CTADWLRDPRVGVRGPEGGG", 0.273],
  ["FSLRDISNISIWAYLNQPCR", -0.341],
  ["IFSGWCVRVFCSFLKHNCLN", -0.408],
  ["IYCVGDFVP", -0.026],
  ["WGFESFSAWATMCERSRWHR", 0.428]
]}

Input: Data request, read-out amyloid nucleation score, for SSGPVFYKLPRLHCVGSHRH
Output: 0.603

Input: Data request, read-out amyloid nucleation score, for CEGCSWFSCSF
Output: 0.749

Input: Data request, read-out amyloid nucleation score, for TVSSLSWDGMPLLPVTLIFS
Output: -1.01

Input: Data request, read-out amyloid nucleation score, for VTYNGYVG
Output: -0.205

Input: Data request, read-out amyloid nucleation score, for VYNAPGCVNRSDLVV
Output: -0.745

Input: Data request, read-out amyloid nucleation score, for KFGDPSRAAILNMSGSISDK
Output: -0.189

Input: Data request, read-out amyloid nucleation score, for VHRDFGSENYSTLEVCNSLT
Output: 1.16

Input: Data request, read-out amyloid nucleation score, for RWFRNAIGGIL
Output: -0.586

----------
assayNotes: amyloid nucleation score (Sup35N fusion, yeast selection) (log enrichment); library NNK3; higher = more nucleation; inactive = no reads after selection
testReadout: amyloid nucleation score

Examples from the recorded data:
{"columns": ["substance", "result"],
 "data": [
  ["CHSRTDKNSFC", "inactive"],
  ["LGRANIHATIACM", "inactive"],
  ["DICEIRTTIRAC", "inactive"],
  ["SILYMVIASWYLY", "inactive"],
  ["SSALRMYVCSAWG", "inactive"],
  ["NNRCNKFPGYTL", "inactive"],
  ["VVMCGCSSSRMGLGPVYRTF", "inactive"],
  ["GECWAPVYDFWI", "inactive"],
  ["LYSLVV", "inactive"],
  ["SALLNRLSVSLYWMYGMSFM", "inactive"]
]}

Input: Data request, read-out amyloid nucleation score, for YMVVFSVNDRMFVPFY
Output: 0.926

Input: Data request, read-out amyloid nucleation score, for GLDYLLHAIYFECRQSGGSR
Output: 0.983

Input: Data request, read-out amyloid nucleation score, for SVRTLLVTHFLRKPLALI
Output: inactive

----------
assayNotes: amyloid nucleation score (Sup35N fusion, yeast selection) (log enrichment); library NNK2; higher = more nucleation; inactive = no reads after selection
Please mark satisfied if the recorded amyloid nucleation score is equal to or greater than 0.3, and not satisfied if it falls below.

// below: answered substances
{"columns": ["substance", "label"],
 "data": [
  ["GFYYRRSMESGNTFSGCSTA", "not satisfied"],
  ["RRVYCNIIVSGVCVSGE", "satisfied"],
  ["HVLEVPPAYPTQTSGMNPNS", "not satisfied"],
  ["GSRHRDLYLGLRLYYTDVEV", "not satisfied"],
  ["IYSFSASNW", "not satisfied"],
  ["HGICRWL", "not satisfied"],
  ["LLGMVNTQLKGNHSYTYKSG", "not satisfied"],
  ["DGVSCSRVNAVVYARLSQMG", "satisfied"],
  ["FMSLTSMLCNLRTNSCMCAR", "not satisfied"],
  ["GAHNMREGAAPGRKRVVLAM", "satisfied"]
]}

Input: Is it the case that KQIVFSANFDHRGGLVVLRW has amyloid nucleation score reaching or exceeding 0.3?
Output: satisfied

Input: Is it the case that VGVWTALTPCKVVFTSDRLS has amyloid nucleation score reaching or exceeding 0.3?
Output: satisfied

Input: Is it the case that AVVVREAFLLFLKAIERAGI has amyloid nucleation score reaching or exceeding 0.3?
Output: not satisfied

Input: Is it the case that NQMYQNE has amyloid nucleation score reaching or exceeding 0.3?
Output: not satisfied

Input: Is it the case that GNCCDDCP has amyloid nucleation score reaching or exceeding 0.3?
Output: satisfied

Input: Is it the case that PILYGSNGVRFV has amyloid nucleation score reaching or exceeding 0.3?
Output: not satisfied

Input: Is it the case that SILSRCIRQVLFREPDVWRS has amyloid nucleation score reaching or exceeding 0.3?
Output: not satisfied

Input: Is it the case that GGLTIAKFCESMVLLRFSRT has amyloid nucleation score reaching or exceeding 0.3?
Output: satisfied

Input: Is it the case that GVCMSLEVKNKKLSNEHNS has amyloid nucleation score reaching or exceeding 0.3?
Output: satisfied

Input: Is it the case that YPWLRIWCDRNDIEVGLVFA has amyloid nucleation score reaching or exceeding 0.3?
Output: not satisfied

Input: Is it the case that STSIPCSEHDFVCYHMVCGF has amyloid nucleation score reaching or exceeding 0.3?
Output: not satisfied

Input: Is it the case that PYILRFRRDLRGFRI has amyloid nucleation score reaching or exceeding 0.3?
Output: satisfied

Input: Is it the case that SLRDARGRSYYRFNIISVML has amyloid nucleation score reaching or exceeding 0.3?
Output: satisfied

Input: Is it the case that DSVSTVVFII has amyloid nucleation score reaching or exceeding 0.3?
Output: satisfied

----------
assayNotes: amyloid nucleation score (Sup35N fusion, yeast selection) (log enrichment); library NNK2; higher = more nucleation; inactive = no reads after selection
testReadout: amyloid nucleation score
Form rule: numeric answer, no unit written next to it.

Examples from the recorded data:
{"columns": ["substance", "amyloid nucleation score"],
 "data": [
  ["TVLLSLSYADCSMLWLVRTL", -0.304],
  ["FLCMFMFESWYDHNAVAVSY", 0.66],
  ["SFVSTVFMGRVFMQHAISTR", -1.08],
  ["VEAWGP", -0.948]
]}

Input: Data request, read-out amyloid nucleation score, for SHFGLDADWVEVPYYRFFRY
Output: -0.8

Input: Data request, read-out amyloid nucleation score, for GQGKRNVSLSNGGDKFNLDV
Output: 4.98

Input: Data request, read-out amyloid nucleation score, for KIINNSANGNIYVVNRVLTL
Output: 8.17

Input: Data request, read-out amyloid nucleation score, for IPSCRVFICRGNNVFRVPIT
Output: -1.06

Input: Data request, read-out amyloid nucleation score, for IYKSRRVRHVLDVVL
Output: -0.241

Input: Data request, read-out amyloid nucleation score, for CLHCSRFSKTLYRKFRNREN
Output: -0.33

----------
assayNotes: amyloid nucleation score (Sup35N fusion, yeast selection) (log enrichment); library NNK3; higher = more nucleation; inactive = no reads after selection
testReadout: amyloid nucleation score

Examples from the recorded data:
{"columns": ["entrySequence", "result"],
 "data": [
  ["IFPFFVSL", "inactive"],
  ["KTIFFMKGLVMSDDICSDRR", "inactive"],
  ["LQTMTDSFKRTQCLCSYKCT", "inactive"],
  ["FYFWLASLCSSDFSFYKVKL", "inactive"],
  ["SNIMHQNVTCESFYCRSSLW", 1.81],
  ["MFMVAIGAYEGCSGRRHREV", -0.238],
  ["FSTVKQLYCFMTPIYASFNS", -0.531],
  ["LSYHTCSVMYALRMSALDCR", "inactive"]
]}

Input: Data request, read-out amyloid nucleation score, for HLRCFKMKFNSHFLVWGAGA
Output: inactive

Input: Data request, read-out amyloid nucleation score, for VSDDLMDGSKNVLFARVEGD
Output: inactive

Input: Data request, read-out amyloid nucleation score, for RERVATFQQPTRHGGGSLAS
Output: inactive

Input: Data request, read-out amyloid nucleation score, for LGYMLNGGRMQKNATNKSGA
Output: inactive

----------
assayNotes: amyloid nucleation score (Sup35N fusion, yeast selection) (log enrichment); library NNK2; higher = more nucleation; inactive = no reads after selection
Please mark label 1 if the recorded amyloid nucleation score is equal to or greater than -0.04, and label 0 if it falls below.

// below: answered substances
{"columns": ["substance", "label"],
 "data": [
  ["MPVHSQSRMVRRRVDKTI", "label 0"],
  ["VVSINVQVDHVCYAFSQVSQ", "label 1"],
  ["ASRNLMYVHNFSSAGLKVLP", "label 1"],
  ["ASFMPLFGGLGFLQKNEITM", "label 1"],
  ["SILYVSRLTFR", "label 1"]
]}

Input: Is it the case that RIMTPWIGRGRRAHIFLHLW has amyloid nucleation score reaching or exceeding -0.04?
Output: label 1

Input: Is it the case that QLGRVSHRVTDRIFWKAYPA has amyloid nucleation score reaching or exceeding -0.04?
Output: label 1

Input: Is it the case that KVSWFVRIYMCEIRMRIGRS has amyloid nucleation score reaching or exceeding -0.04?
Output: label 1

Input: Is it the case that YDQVSFAL has amyloid nucleation score reaching or exceeding -0.04?
Output: label 0

Input: Is it the case that NEEWSFCKS has amyloid nucleation score reaching or exceeding -0.04?
Output: label 0

Input: Is it the case that NDSQTTLGLFDCRVREADHR has amyloid nucleation score reaching or exceeding -0.04?
Output: label 1

Input: Is it the case that LFECMPYGLNAKDSCADSNV has amyloid nucleation score reaching or exceeding -0.04?
Output: label 0

Input: Is it the case that FRCGRVTFNLVEYTFPPWIW has amyloid nucleation score reaching or exceeding -0.04?
Output: label 0

Input: Is it the case that FTIHYAGTGCWMGMYINSDY has amyloid nucleation score reaching or exceeding -0.04?
Output: label 1
